# Tested on: HCT-15 colon
# Assay info: NCI tumour cell line growth inhibition, 48 h
Endpoint name: TGI

# count of solved cases: 5
Compound	TGI
CCOC(=O)Nc1cc2c(c(N)n1)N=C(c1ccc(OC)cc1)CN2	> 100 µM
COc1ccc2c(c1)C(=O)CCc1cc(OC)c(OC)c(OC)c1-2	> 100 µM
CC(=O)SCCC(NC(=S)Nc1ccccc1)P(=O)(Oc1ccccc1)Oc1ccccc1 (configuration not stated)	> 100 µM
Cc1c(-c2ccccc2)cc(O)c2nc3ccccc3n12	> 100 µM
O=S(Cc1ccccc1)c1nc2ccccc2nc1-c1cccs1 (configuration not stated)	25.5 µM

Reported TGI (HCT-15 colon) for entry N#Cc1c(-c2ccc(Cl)cc2)c2c(n(C3OC(CO)C(O)C(O)C3O)c1=S)CCCC2 (configuration not stated) is > 100 µM

GET /values?item= Cc1ccc(C)c(NC(=O)CC2Sc3ccccc3NC2=O)c1 (configuration not stated) &system= HCT-15 colon returns TGI: > 100 µM

###

# System: M14 melanoma
# Assay info: NCI tumour cell line growth inhibition, 48 h
Endpoint name: TGI

# example entries with known answers
Compound structure	TGI
COc1ccc(C2=C[C@]3(O)CCCN3C[C@@H]2c2ccc(OC)c(OC)c2)cc1	< 0.0001 µM
CS(=O)(=O)CCNCc1coc(-c2ccc3ncnc(Nc4ccc(OCc5ccccc5)cc4)c3c2)c1	9.11 µM
Cc1ccc2c(ccc(/C=C/c3ccc(O)c4ncccc34)[n+]2C)c1	40.3 µM
O=C1NC(=S)S/C1=C/c1ccc2c(c1)OCO2	> 100 µM

TGI for `COCCOC(=O)C1=C(O)c2ccccc2S(=O)(=O)N1C` is > 100 µM

Entry `CCCCCCNCCc1cnc[nH]1` — recorded TGI = > 100 µM

###

# System: HS 578T breast
# Assay info: NCI tumour cell line growth inhibition, 48 h
Endpoint name: TGI

Example compounds with recorded TGI:
Compound	Endpoint name	Observed result
O=C(O)c1c2c(cc3c1CC(Cc1ccccc1)C3=O)CCC2 (stereo unspecified)	TGI	> 100 µM
C=C(C)C1CCC(C(=O)O)CC1 (stereo unspecified)	TGI	> 100 µM
CS(=O)(=O)Nc1ccc2ccccc2c1-c1c(NS(C)(=O)=O)ccc2ccccc12	TGI	> 25 µM

Lab entry: HS 578T breast assay, compound O=C(NN1C(=O)C(Cl)C1c1ccc(Cl)cc1)c1c(Cl)c(Cl)c(Cl)c(Cl)c1-c1nc2ccccc2[nH]1 (stereo unspecified) , TGI = > 100 µM

Record for `NC(=Nc1ccccc1Cl)c1ccccc1N` under target or system HS 578T breast: TGI reported as > 100 µM

Form field, TGI with HS 578T breast, item `C=C(C)[C@@H]1CC[C@]2(COCCCN)CC[C@]3(C)[C@H](CC[C@@H]4[C@@](C)(CCCNCCCN)[C@H](C(=C)C)CC[C@]43C)[C@@H]12` : 5.54 µM

###

Listed compounds paired with reported TGI
# Tested on: PC-3 prostate
# Assay info: NCI tumour cell line growth inhibition, 48 h

// solved cases for TGI follow
Compound	System tested	Observed result
CCN(CC)CCNC(Cc1ccccc1)c1ccc(OCc2ccccc2)cc1 (centres undefined)	PC-3 prostate	15.7 µM
CC[C@@H](C)[C@H](NC(=O)[C@H](Cc1ccccc1)NCC(F)(F)F)C(=O)OC(C)(C)C	PC-3 prostate	> 100 µM
COc1cc2c(cc1OCCCCCCCCCCN1C(=O)c3cccc4cccc(c34)C1=O)N=C[C@@H]1CCCN1C2=O	PC-3 prostate	12.3 µM
Cc1ccc2c(ccc(/C=C/c3ccc(O)c4ncccc34)[n+]2C)c1	PC-3 prostate	> 49.8 µM
COC(=O)C1=C(OC(=O)/C(=C/c2ccccc2)c2ccc(Cl)cc2Cl)C(C(=O)OC)[C@@]2(O)[C@@H](C(=O)OC)[C@H](C)C[C@@H]1[C@@H]2C(=O)OC (some centres undefined)	PC-3 prostate	> 100 µM
OC(CC1CCCCN1)c1ccc2c(c1)oc1ccccc12 (centres undefined)	PC-3 prostate	> 100 µM
Cc1cn(C2CC(OC(=O)c3ccc(Cl)cc3)C(COC(=O)c3ccc(Cl)cc3)O2)c(=O)[nH]c1=O (centres undefined)	PC-3 prostate	> 100 µM
COc1ccc2nc(N/N=C/c3sccc3C)cc(C)c2c1	PC-3 prostate	38.7 µM

# input for lookup
TGI in this record for OC(CNc1ccccn1)c1ccccc1 (centres undefined) : > 100 µM
